Data provenance is PubChem BioAssay (NCI).

tested on: OVCAR-4 ovarian; experiment: NCI-60 one-dose screen, 48 h (100 = growth as untreated, 0 = no growth, -100 = all killed); details: 10 µM unless noted
This is part of a sample that, as a whole, favours compounds with a hit. Of some 83,000 tested, about 20% had one in any assay.
A collection of compounds and their measured growth

Compound: COc1ccc(C2C3=C(COC3=O)N(CCO)c3cc4c(cc32)OCCO4)cc1OC (stereo not drawn)
Value unit: %
growth: 41.3
--
Compound: Clc1ccc(-c2cn3ccsc3n2)c(Cl)c1Cl
Value unit: %
growth: 74.1
--
Compound: COc1cc2c(cc1O)[C@@]1(C)[C@H](c3ccccc3Br)OC(=O)N1CC2
Value unit: %
growth: 76.6
--
Compound: COc1cc(C(=O)/C=C/c2c(-c3cccs3)nc3ccccn23)cc(OC)c1OC
Value unit: %
growth: 13.1
--
Compound: COC(=O)/C(CCC=C(C)C)=C1\[C@@H](OC(C)=O)C[C@@]2(C)[C@H]1CC(=O)[C@H]1[C@@]3(C)CCC(N4CCCC4)[C@@H](C)[C@@H]3CC[C@@]12C (stereo partly drawn)
Value unit: %
growth: 97.5
--
Compound: N#C/C(=C\c1ccc(Br)cc1)c1cc2ccccc2[nH]1
Value unit: %
growth: 112
--
Compound: CCNC(=O)Oc1ccc(/C(=C(/C)Cc2ccc(OC)cc2)c2ccc(OCCN3CCCC3)cc2)cc1
Value unit: %
growth: 74.1
--
Compound: COc1cc2c3c(n(CCCCNCCCn4c5c(c6cc(OC)c(OC)cc6c4=O)C(=O)c4cc6c(cc4-5)OCO6)c(=O)c2cc1OC)-c1cc2c(cc1C3=O)OCO2
Value unit: %
growth: 102
